assayTarget: T1, PD-L1/Fc (UniProt Q9NZQ7 19-238, limits assumed)
T1 construct: not shown: Fc part
T1 sequence (Q9NZQ7 19-238 limits assumed): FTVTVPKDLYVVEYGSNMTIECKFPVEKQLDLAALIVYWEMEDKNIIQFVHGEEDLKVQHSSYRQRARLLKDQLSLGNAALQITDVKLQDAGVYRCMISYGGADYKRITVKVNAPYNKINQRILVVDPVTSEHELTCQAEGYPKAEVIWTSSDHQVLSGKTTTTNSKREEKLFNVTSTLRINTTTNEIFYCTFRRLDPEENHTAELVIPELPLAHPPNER
testDetails: SPR (Biacore 8K), prokaryotically expressed antibody as ligand, PD-L1/Fc as analyte, 1:1 binding model
testReadout: koff

binder | testReadout | assayValue
AH01963 (prokaryotically expressed antibody product) (Fab, V domains shown) VH: QVQLQESGPGLVKPSQTLSLTCTVSGYSITSGYTWHWIRQHPGKGLEWIGYIHYSGSTKYNPSLKSRVTISRDTSKNQFSLKLSSVTAADTAVYYCARNSLFASWGQGTLVTVSS VL: DIVLTQSPDSLAVSLGERATINCRASESVDTYGDSFMHWYQQKPGQPPKLLIYRASNLESGVPDRFSGSGSGTDFTLTISSVQAEDVAVYYCQQSNEAPYTFGGGTKLEIK | koff | 1.63e-05 s⁻¹
AH02033 (prokaryotically expressed antibody product) (Fab, V domains shown) VH: QVQLQESGPGLVKPSQTLSLTCTVTGYSITSGYTWHWIRQHPGKGLEWMGYIHYSGSTKYNPSLKSRFTISRDTSKNQFSLKLSSVTAADTAVYYCARNSLFASWGQGTLVTVSS VL: DIVLTQSPDSLAVSLGERATINCRASESVDTYGDSFMHWFQQKPGQPPKLLIYRASNLESGIPDRFSGSGSGTDFTLTISSLQAEDVAVYYCQQSNEAPYTFGGGTKLEIK | koff | 2.71e-08 s⁻¹
AH01950 (prokaryotically expressed antibody product) (Fab, V domains shown) VH: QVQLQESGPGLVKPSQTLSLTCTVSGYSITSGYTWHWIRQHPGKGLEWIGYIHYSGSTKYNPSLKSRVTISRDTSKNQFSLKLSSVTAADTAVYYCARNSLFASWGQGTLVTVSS VL: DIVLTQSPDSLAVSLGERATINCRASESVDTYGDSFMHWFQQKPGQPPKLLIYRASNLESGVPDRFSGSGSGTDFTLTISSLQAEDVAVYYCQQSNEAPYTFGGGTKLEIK | koff | 1.9e-05 s⁻¹
